Entry source: the supplement of paper PMC12783771

B1: library; numbered along this chain (parent)
chain: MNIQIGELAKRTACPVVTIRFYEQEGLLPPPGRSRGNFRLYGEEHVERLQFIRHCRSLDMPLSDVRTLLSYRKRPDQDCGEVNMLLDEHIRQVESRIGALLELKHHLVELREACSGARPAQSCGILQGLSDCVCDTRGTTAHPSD

Variants of: B1
Test: sfGFP reporter fluorescence (15 h) (µM FITC); higher = stronger transcriptional activation
Conditions: library round: Round 0; ligand: 30 µM Zn
readout name: sfGFP reporter fluorescence

INSERT INTO measurements (sequence_chain, readout_name, observed) VALUES
  ('MNIQIGELAKRTACPVVTIRFYEQEGLLPPPGRSRGNFRLYGEEHQERLQFIRHCRSLDMPLSDVRTLLSYRKRPDQDCGEVNMLLDEHIRQVESRIGALLELKHHLVELREACSGARPAQSCGILQGLSDCVCDTRGTTAHPSD [V46Q]', 'sfGFP reporter fluorescence', 0.755),
  ('MNIQIGELAKRTACPVVTIRFYEQEGRLPPPGRSRGNFRLYGEEHVERLQFIRHCRSLDMPLSDVRTLLSYRKRPDQDCGEVNMLLDEHIRQVESRIGALLELKHHLVELREACSGARPAQSCGILQGLSDCVCDTRGTTAHPSD [L27R]', 'sfGFP reporter fluorescence', 0.0665),
  ('MNIQIGELAKRTACPVVTIRFYEQEGLLPPPGRSRGNFRLYGEEHVERLQFIRHLRSLDMPLSDVRTLLSYRKRPDQDCGEVNMLLDEHIRQVESRIGALLELKHHLVELREACSGARPAQSCGILQGLSDCVCDTRGTTAHPSD [C55L]', 'sfGFP reporter fluorescence', 0.173),
  ('MNIQIGELAKRTACPVVTIRFYEQEGLLPPPGRSRGNFRLYGEEHVERLQFIRHCRSLDPPLSDVRTLLSYRKRPDQDCGEVNMLLDEHIRQVESRIGALLELKHHLVELREACSGARPAQSCGILQGLSDCVCDTRGTTAHPSD [M60P]', 'sfGFP reporter fluorescence', 0.0552),
  ('MNIQIGELAKRTACPVVTIRFYEQEGLLPPPGRSRGNFRLYGEEHVERLQFIRHCRSLDMPLSDVRTLLSYRKRPDQDCGEVNMLLDEHIRQVESRIGALLELKHHLVELREACSGARPAQSCGILQGLSDCVCCTRGTTAHPSD [D135C]', 'sfGFP reporter fluorescence', 1.73),
  ('MNIQIGELAKRTACPVVTIRFYEQEGLLPPPGRSRGNFRLYGEEHHERLQFIRHCRSLDMPLSDVRTLLSYRKRPDQDCGEVNMLLDEHIRQVESRIGALLELKHHLVELREACSGARPAQSCGILQGLSDCVCDTRGTTAHPSD [V46H]', 'sfGFP reporter fluorescence', 0.345);

Now consider the entry below.
Task: Return reported sfGFP reporter fluorescence; argument: MNIQIGELAKRTACEVVTIRFYEQEGLLPPPGRSRGNFRLYGEEHVERLQFIRHCRSLDMPLSDVRTLLSYRKRPDQDCGEVNMLLDEHIRQVESRIGALLELKHHLVELREACSGARPAQSCGILQGLSDCVCDTRGTTAHPSD [P15E]
Result: 0.43
